Assay: chemical genetic growth profiling, strain panel (AID 1159580);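 further: tested at 20 µM; growth read once vehicle control cultures reached saturation at 30 °C; 1 = growth at the plate median or of vehicle wells; lower values mean less growth of the strain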
Settings: S. cerevisiae deletion strains, growth OD, locus YLR221C, strain rsa3, active compounds read low
Out of some 5,500 compounds screened, about 2,000 (36%) were called active. About 18% were inconclusive and are not listed. Some of the results follow.
Endpoint: normalized growth

# count of solved cases: 5
| Compound | normalized growth |
| --- | --- |
| CC(=O)O[C@]1(C(C)=O)CCC2C3C=C(Cl)C4=CC(=O)[C@@H]5C[C@@H]5[C@]4(C)C3CC[C@@]21C (some centres not stated) | 0.982 (inactive) |
| O=c1ccc2c(O)c3ccoc3cc2o1 | 0.984 (inactive) |
| CC1(C)O[C@H]2CC(=O)OC[C@]23[C@H]2CC[C@@]4(C)[C@H](c5ccoc5)OC(=O)[C@H]5O[C@]54[C@]2(C)C(=O)C[C@@H]13 | 1 (inactive) |
| CCc1cc(C(N)=S)ccn1 | 1.02 (inactive) |
| O=C(Cc1cccs1)NC1C(=O)N2C(C(=O)[O-])=C(C[n+]3ccccc3)CSC12 (configuration not stated) | 0.99 (inactive) |

Given the entry N#Cc1nn(-c2c(Cl)cc(C(F)(F)F)cc2Cl)c(N)c1S(=O)C(F)(F)F (configuration not stated) , report its measured normalized growth.
0.89 (active)

Returns the measured normalized growth for the input compound. Input: C[C@H]1O[C@H](OC2[C@@H](O)[C@@H](O)C(O)[C@H](O)[C@H]2O)[C@@H](N)C[C@@H]1N=C(N)C(=O)O (some centres not stated)
0.962 (inactive)
